Molecular target: Rev-Erb alpha (Homo sapiens, UniProt P20393)
Sequence (P20393 284-614 limits assumed): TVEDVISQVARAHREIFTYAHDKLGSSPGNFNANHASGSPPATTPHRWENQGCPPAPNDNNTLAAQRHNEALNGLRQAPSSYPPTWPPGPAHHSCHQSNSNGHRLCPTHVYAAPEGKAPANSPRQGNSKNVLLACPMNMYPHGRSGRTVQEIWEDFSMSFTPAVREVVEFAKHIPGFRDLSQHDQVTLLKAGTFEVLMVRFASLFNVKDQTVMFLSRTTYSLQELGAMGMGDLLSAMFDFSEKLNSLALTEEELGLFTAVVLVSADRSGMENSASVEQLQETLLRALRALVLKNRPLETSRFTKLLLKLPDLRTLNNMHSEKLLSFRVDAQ
Assay: M2H (mammalian two-hybrid) cellular activation assay of Rev-Erb alpha
Type: cell-based
Settings: M2H assay, HEK293 cells, Gal4-Rev-Erb alpha / VP16-NCoR, luciferase reporter
Reported EC50 values for a set of compounds

| smiles_text | EC50 |
| --- | --- |
| Oc1cccc(-c2cc(F)c(F)cc2Oc2ccc3nnc(C(F)(F)F)n3n2)c1 | 1000 to 6000 nM |
| Cc1ccc(-c2ccc(C(F)(F)F)cc2Oc2nn3c(Cl)nnc3cc2C)cn1 | 100 to 1000 nM |
| N#Cc1ccc(-c2ccccc2)c(Oc2ccc3nnc(Cl)n3n2)c1 | 100 to 1000 nM |
| COc1ncc(C(F)(F)F)cc1-c1ccc(C(F)(F)F)cc1Oc1nn2c(Cl)nnc2cc1C | 1000 to 6000 nM |
| Cc1ccc(-c2cc(F)ccc2Oc2ccc3nnc(C(F)(F)F)n3n2)cc1 | 1000 to 6000 nM |
| Cc1cc2nnc(C(F)(F)F)n2nc1Oc1cc(C(F)(F)F)ccc1-c1cncnc1 | 1000 to 6000 nM |
| CN1CCN(Cc2ccc(Oc3ccc4nnc(Cl)n4n3)c(-c3ccccc3)c2)CC1 | > 6000 nM |
| COc1ccc(C(=O)c2ccccc2)c(Oc2ccc3nnc(Cl)n3n2)c1 | 100 to 1000 nM |
| COc1ncc(-c2ccc(C(F)(F)F)cc2Oc2nn3c(Cl)nnc3cc2C)cn1 | 1000 to 6000 nM |

---

Reported melting point values for a set of molecules
Where a name gives a salt, the structure may show the parent alone.
experimental_endpoint: melting point

| molecule | endpoint_result |
| --- | --- |
| Oc1cccc(-c2ccccc2Oc2ccc3nnc(Cl)n3n2)c1 | 203.7 °C |
| Cc1cc2nnc(Cl)n2nc1Oc1cc(C(F)(F)F)ccc1-c1ccccc1 | 163 to 165 °C |
| FC(F)(F)c1ccc(-c2ccccc2)c(Oc2cc(-c3ccccc3)c3nnc(Cl)n3n2)c1 | 162 to 164 °C |
| O=[N+]([O-])c1cccc(-c2cc(F)ccc2Oc2ccc3nnc(Cl)n3n2)c1 | 190.5 °C |
| COc1ncc(-c2cc(Cl)ccc2Oc2nn3c(Cl)nnc3c3ccccc23)cn1 | 213 to 215 °C |
| Cc1cc(Oc2cc(C(F)(F)F)ccc2-c2cncnc2)nn2c(C(F)(F)F)nnc12 | 167 to 172 °C |
| CCN(CC)Cc1ccc(-c2ccccc2)c(Oc2ccc3nnc(Cl)n3n2)c1 | 110 to 112 °C |
| Cc1cc2nncn2nc1Oc1cc(C(F)(F)F)ccc1-c1cncnc1 | 179 to 181 °C |
| COC(=O)c1ccc(Oc2ccc3nnc(Cl)n3n2)c(-c2ccccc2)c1 (as salt: sodium) | 75.9 to 78.8 °C |
| Oc1cccc(-c2cc(F)ccc2Oc2ccc3nnc(Cl)n3n2)c1 | 241.3 to 244.5 °C |

---

Target: Rev-Erb alpha (Homo sapiens, UniProt P20393)
Experiment: M2H (mammalian two-hybrid) cellular activation assay of Rev-Erb alpha
Type: cell-based
Settings: M2H assay, HEK293 cells, Gal4-Rev-Erb alpha / VP16-NCoR, luciferase reporter
pEC50: −log10 of the molar value.
experimental_endpoint: pEC50

| compound | experimental_endpoint | endpoint_result |
| --- | --- | --- |
| Clc1nnc2ccc(Oc3cc(CN4CCOCC4)ccc3-c3ccccc3)nn12 [Cpd.4-64] | pEC50 | 5.22 to 6.00 |
| CCc1nnc2cc(C)c(Oc3cc(C(F)(F)F)ccc3-c3cccnc3)nn12 [Cpd.5-49] | pEC50 | 5.22 to 6.00 |
| Cc1ncccc1-c1ccc(C(F)(F)F)cc1Oc1ccc2nnc(Cl)n2n1 [Cpd.4-123] | pEC50 | 6.00 to 7.00 |
| Cc1ccc(-c2ccc(C(F)(F)F)cc2Oc2ccc3nnc(Cl)n3n2)cn1 [Cpd.4-196] | pEC50 | 5.22 to 6.00 |
| Clc1ccc(Oc2ccc(Cl)cc2Oc2ccc3nnc(Cl)n3n2)c(Cl)c1 [Cpd.4-114] | pEC50 | 6.00 to 7.00 |
| CCc1ncncc1-c1ccc(C(F)(F)F)cc1Oc1nn2c(Cl)nnc2cc1C [Cpd.5-52] | pEC50 | 5.22 to 6.00 |
| FC(F)(F)Oc1ccc(-c2ccccc2)c(Oc2ccc3nnc(Cl)n3n2)c1 [Cpd.4-68] | pEC50 | 6.00 to 7.00 |
| Fc1cccc(-c2ccc(F)cc2Oc2ccc3nnc(Cl)n3n2)c1 [Cpd.4-30] | pEC50 | 6.00 to 7.00 |
| Fc1ccc(-c2cc(F)ccc2Oc2ccc3nnc(Cl)n3n2)cc1 [Cpd.4-116] | pEC50 | 6.00 to 7.00 |
